# Test system: α7 integrin promoter
# experimental-details: muscle cell-based assay: α7βgal+/− myoblasts/myotubes, LacZ reporter, β-galactosidase cleavage of FDG
# Parameters: species or system mouse
# measurement-context: Table 12; curve fit
# Protocol: An α7 integrin null mouse was produced in which exon 1 of the gene encoding the α7 integrin was replaced by the LacZ reporter. […] A primary myoblast cell line (designated α7βgal^+/−) isolated from 10 day old α7^+/− pups were analyzed for the ability of β-galactosidase to report α7 integrin expression. α7βgal^+/− myoblasts were differentiated and subjected to X-gal staining and western analysis (FIGS. 1A and 1B). […]
I'd be grateful if you could share measured Fit HillSlope for these entries.
No unit in the answer, please; the number alone is enough.

Record summary for CS(=O)(=O)N(Cc1ccc(C(=O)NC2CCCC2)cc1)c1ccccc1 : reported Fit HillSlope = 3.1925

Record summary for CCCCS(=O)(=O)N1CCCC(C(=O)NCCc2ccccc2)C1 (stereo not drawn) : reported Fit HillSlope = 1.21

Record summary for COc1cc(=O)n(C)c2ccccc12 : reported Fit HillSlope = 1.6604

Record summary for C[C@H]1CNC(=O)c2c(C(=O)Nc3ccc(CNC(=O)OC(C)(C)C)cc3)ncn21 : reported Fit HillSlope = 1.01

Record summary for Cc1cc(N2CCOCC2)nc2ccc(N/C(S)=N/Cc3ccc4c(c3)OCO4)cc12 : reported Fit HillSlope = 1.2475

Record summary for COc1cc(/C=C2/C(=N)N3C(SC)=NSC3=NC2=O)ccc1OC(=O)c1ccco1 : reported Fit HillSlope = 2.1876

Record summary for Cc1ccc(NC(=O)C2CCCCC2C(=O)O)cc1C (stereo not drawn) : reported Fit HillSlope = 4.5045

Record summary for COC(=O)Cc1c(O)ccn(Cc2ccc3c(c2)OCO3)c1=O : reported Fit HillSlope = 1.4163

Record summary for COc1cc(CNCc2ccc(C(=O)O)cc2)ccc1OCc1ccc(F)cc1.Cl : reported Fit HillSlope = 1.7529

###

# Tested on: α7 integrin promoter
# experimental-details: muscle cell-based assay: α7βgal+/− myoblasts/myotubes, LacZ reporter, β-galactosidase cleavage of FDG
# Parameters: species or system mouse; scale not given here
# measurement-context: Myoblasts, 10 uM
# Experimental: An α7 integrin null mouse was produced in which exon 1 of the gene encoding the α7 integrin was replaced by the LacZ reporter. […] A primary myoblast cell line (designated α7βgal^+/−) isolated from 10 day old α7^+/− pups were analyzed for the ability of β-galactosidase to report α7 integrin expression. α7βgal^+/− myoblasts were differentiated and subjected to X-gal staining and western analysis (FIGS. 1A and 1B). […]
reported-endpoint: Results in α7+/− β-galactosidase assay
No unit in the answer, please; the number alone is enough.

Record summary for COC(=O)Cn1c(=O)c2c(nc3n2CC(C)CN3Cc2ccccc2)n(C)c1=O (centres unmarked) [drawing 623] : reported Results in α7+/− β-galactosidase assay = −0.1756

Record summary for COc1ccccc1C(=O)Nc1ccnn1C1CCN(C(=O)c2ccoc2)CC1 [drawing 551] : reported Results in α7+/− β-galactosidase assay = 0.02292

Record summary for O=C(NCc1ccccc1)C(c1c(F)cccc1Cl)N(C(=O)c1csnn1)C1CC1 (centres unmarked) [drawing 638] : reported Results in α7+/− β-galactosidase assay = −0.1188

Record summary for COc1ccc(C(=O)/C=C2\C(=O)Nc3ccccc32)cc1 [drawing 569] : reported Results in α7+/− β-galactosidase assay = −0.6859

Record summary for O=C(O)c1csc(-c2cccs2)n1 [drawing 570] : reported Results in α7+/− β-galactosidase assay = −0.08869

Record summary for CCN(CC)C(=O)c1sc2nc(-c3ccc(OC)cc3)cn2c1C [drawing 620] : reported Results in α7+/− β-galactosidase assay = −0.2175

Record summary for CC(=O)Nc1ccc(NC(=O)c2cc(=O)c3cc(C)cc(C)c3o2)cc1 [drawing 596] : reported Results in α7+/− β-galactosidase assay = 0.1321

Record summary for CC(C(=O)Nc1ccc(C#N)cc1)N(C)CC(=O)Nc1cccc(F)c1 (centres unmarked) [drawing 629] : reported Results in α7+/− β-galactosidase assay = −0.5078

Record summary for COCCSc1ccccc1C(=O)Nc1cc(C)cc(C)c1 [drawing 595] : reported Results in α7+/− β-galactosidase assay = 0.2482

Record summary for Cc1ccccc1NC(=O)NCCCN1CCN(C)CC1 [drawing 537] : reported Results in α7+/− β-galactosidase assay = −0.04766

Record summary for CCc1c(C)sc(NC(=O)c2ccco2)c1C#N [drawing 528] : reported Results in α7+/− β-galactosidase assay = 0.07353

Record summary for CC1(C)Cc2ccccc2-c2nc3n(c(=O)c21)CCS3 [drawing 588] : reported Results in α7+/− β-galactosidase assay = 0.02377

Record summary for Cc1ccccc1/C=C1\C(=O)Nc2ccc(F)cc21 [drawing 664] : reported Results in α7+/− β-galactosidase assay = 0.04838

Record summary for Oc1nc2ccccc2nc1-c1c[nH]c2ccccc12 [drawing 625] : reported Results in α7+/− β-galactosidase assay = −0.1781

Record summary for O=CN1CCN(C(=O)CC(c2ccccc2)c2cc(Br)ccc2O)CC1 (centres unmarked) [drawing 695] : reported Results in α7+/− β-galactosidase assay = −0.1323

Record summary for CN1C(=O)/C(=C(/C#N)c2nc3ccccc3[nH]2)c2ccccc21 [drawing 592] : reported Results in α7+/− β-galactosidase assay = 0.04652

Record summary for CCOc1cc(C)c(S(=O)(=O)N2CCCCC2)cc1C [drawing 679] : reported Results in α7+/− β-galactosidase assay = −0.02723

Record summary for Cc1cccc(Cn2cnc3c(nnn3Cc3ccc(Cl)cc3)c2=O)c1 [drawing 658] : reported Results in α7+/− β-galactosidase assay = −0.06567

Record summary for COc1ccc2c(c1)C(=C(C#N)C#N)C(=O)N2CCc1ccccc1 [drawing 522] : reported Results in α7+/− β-galactosidase assay = 0.1343

Record summary for CCC(CC)C(=O)Nc1c(C(=O)N2CCN(c3ccccc3)CC2)oc2ccccc12 [drawing 687] : reported Results in α7+/− β-galactosidase assay = −0.0251

Record summary for O=C1Nc2ccccc2/C1=C/c1c[nH]c(-c2ccccc2)n1 [drawing 548] : reported Results in α7+/− β-galactosidase assay = 0.1719

Record summary for CCCCNc1nnc(Cc2ccc(Cl)cc2)c(O)n1 [drawing 543] : reported Results in α7+/− β-galactosidase assay = −0.2224

Record summary for O=C1Nc2ccccc2/C1=C/c1cccnc1 [drawing 535] : reported Results in α7+/− β-galactosidase assay = −0.235

Record summary for Cc1cc([N+](=O)[O-])ccc1NC(=O)C(C)N1CCN(c2ccccn2)CC1 (centres unmarked) [drawing 601] : reported Results in α7+/− β-galactosidase assay = −0.03065

Record summary for CCC(=O)c1ccc(OCC(O)CN2CCOC(C)C2)cc1.O=C(O)C(=O)O (centres unmarked) [drawing 611] : reported Results in α7+/− β-galactosidase assay = −0.1332

Record summary for Cc1nnc(-c2ccc(N3CCOCC3)c([N+](=O)[O-])c2)o1 [drawing 546] : reported Results in α7+/− β-galactosidase assay = −0.06761

Record summary for CCOc1cc2c3c(c1)C(C)=CC(C)(C)N3C(=O)C2=O [drawing 650] : reported Results in α7+/− β-galactosidase assay = −0.4363

Record summary for CC(C)c1ccc(NC(=O)CN2C(=O)c3ccccc3S2(=O)=O)cc1 [drawing 607] : reported Results in α7+/− β-galactosidase assay = −0.05458

Record summary for CCOC(=O)c1cc(C(=O)OCC)c(SCc2ccccc2)nc1O [drawing 624] : reported Results in α7+/− β-galactosidase assay = −0.1374

Record summary for CC(O)CNc1nc2c(c(=O)n(Cc3ccc(Br)cc3)c(=O)n2C)n1C (centres unmarked) [drawing 580] : reported Results in α7+/− β-galactosidase assay = −0.1174

Record summary for CC(C)(C)NC(=O)NC(=O)CN1CCN(Cc2ccccc2)CC1 [drawing 632] : reported Results in α7+/− β-galactosidase assay = 0.1725

Record summary for CCCC(=O)OCC(=O)c1[nH]c(C)c(C(C)=O)c1C [drawing 704] : reported Results in α7+/− β-galactosidase assay = 0.2296

Record summary for Cn1cc(CN2CCC(C(=O)Nc3cccc(-c4cscn4)c3)CC2)cn1 [drawing 702] : reported Results in α7+/− β-galactosidase assay = 0.2457

Record summary for CCCC1C(c2cc(OC)c(OC)c(OC)c2)=Nc2c1c(=O)[nH]c(=O)n2Cc1ccccc1 (centres unmarked) [drawing 677] : reported Results in α7+/− β-galactosidase assay = 0.1807

Record summary for CCCS(=O)(=O)c1nc(S(=O)(=O)c2ccc(C)cc2)c(N2CCCC2)s1 [drawing 572] : reported Results in α7+/− β-galactosidase assay = −0.5196

Record summary for Fc1ccc(-c2ccnc3nc(N4CCN(c5ccccc5)CC4)nn23)cc1 [drawing 649] : reported Results in α7+/− β-galactosidase assay = 0.1229

Record summary for CCCCN1CC(=O)N2Cc3[nH]c4ccccc4c3C[C@H]2C1=O [drawing 686] : reported Results in α7+/− β-galactosidase assay = −0.04523

Record summary for CCCN(C(=O)c1ccc(S(=O)(=O)N2CCCC2)cc1)C1CCS(=O)(=O)C1 (centres unmarked) [drawing 560] : reported Results in α7+/− β-galactosidase assay = 0.1978

Ref: patent US10028992B2
